Experiment: probe aLefty1 binding on compound microarray – biochemical, small-molecule microarray, 635/667 nm fluorescence, primary screen (AID 1153);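 further: score merges spot fluorescence with signal-to-noise ratio from the scanned slide images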
Conditions: higher = more signal
Assay endpoint: composite z-score

Molecule: C=C(COC)/C(=C/C[C@H](OC(C)=O)c1ccccc1OCCO)c1cc(C(=O)OC)ccc1OC
Assay endpoint: composite z-score
Assay result: -0.145
//
Molecule: C=CC[C@@]1(C(=O)OC)N=C(c2ccc(OCCCO)cc2)O[C@@H]1c1ccccc1N=[N+]=[N-]
Assay endpoint: composite z-score
Assay result: 0.398
//
Molecule: C=C(CCCC)/C(=C/C[C@H](OC(=O)c1ccncc1)c1ccccc1OCCO)c1cc(C(=O)OC)ccc1OC
Assay endpoint: composite z-score
Assay result: 0.165
//
Molecule: OCCCC1=CC(c2ccc(CN3CCCC3)cc2)N(Cc2cccc(OC(F)(F)F)c2)CC1 (stereo not given)
Assay endpoint: composite z-score
Assay result: 0.286
//
Molecule: C=CCN1Cc2ccccc2[C@H]2OC(c3ccc(OCCCO)cc3)=N[C@@]2(CCS(=O)(=O)c2ccccc2)C1=O
Assay endpoint: composite z-score
Assay result: 0.607
//
Molecule: CC(C)(C)OC(=O)CC[C@@]1(C(=O)NCCN2CCOCC2)N=C(c2ccc(OCCCO)cc2)O[C@@H]1c1ccccc1CN=[N+]=[N-]
Assay endpoint: composite z-score
Assay result: -0.0255
//
Molecule: COCCOC(=O)N1C(=O)[C@@]2(c3cc(C#CCNC(N)=O)ccc31)[C@H](C(=O)Nc1nc3ccccc3s1)[C@H]1C(=O)O[C@H](c3ccccc3)[C@H](c3ccccc3)N1[C@@H]2c1ccccc1OCCO
Assay endpoint: composite z-score
Assay result: 0.646
//
Molecule: COc1cc(CO)cc(I)c1O[C@H]1C=C(C(=O)NCCO)C[C@@H](NC2CCCCCC2)[C@@H]1O
Assay endpoint: composite z-score
Assay result: 0.0313
//
Molecule: COC(=O)[C@@]1(Cc2ccc(OC)cc2)[C@H]2c3cc(C(=O)N4CCCC4)n(CCn4cc([N+](=O)[O-])nc4C)c3C[C@H]2CN1C(=O)c1ccccc1
Assay endpoint: composite z-score
Assay result: 2.16
//
Molecule: O=C1C[C@@](C(=O)O)(c2ccc([N+](=O)[O-])cc2)[C@@H](c2ccc(CO)cc2)N1C1CCCCC1
Assay endpoint: composite z-score
Assay result: 0.0984
//
Molecule: COC(=O)[C@H](Cc1ccccc1)N1CC2=CCCC=C[C@@H]2[C@H]1[C@H](O)Cc1ccccc1
Assay endpoint: composite z-score
Assay result: 0.315
//
Molecule: O=C1c2ccccc2[C@@]2(Cc3ccccc3N(Cc3ccccc3)C2=O)[C@H](c2ccc(CO)cc2)N1Cc1ccccc1Cl
Assay endpoint: composite z-score
Assay result: -0.0479
//
Molecule: COc1ccc([Si](C)(C)[C@H]2[C@H](CCO)O[C@@]3(C(=O)N(Cc4ccc(NC(=O)[C@H](C)O)cc4)c4ccccc43)[C@@H]2C)cc1
Assay endpoint: composite z-score
Assay result: -0.0984
//
Molecule: O=C1[C@H]2C=C(I)[C@H](C[C@@H]2c2ccccc2)[C@@]12CO2
Assay endpoint: composite z-score
Assay result: -0.15
//
Molecule: COC(=O)[C@@]1(Cc2ccccc2)[C@H]2c3cc(C(=O)N(C)C)n(Cc4ccc(S(C)(=O)=O)cc4)c3C[C@H]2CN1C(=O)c1ccccc1
Assay endpoint: composite z-score
Assay result: 0.71
